Sourced from ChEMBL document CHEMBL5291721

Please consider the recorded AC50 for Vasopressin V1a receptor (Homo sapiens, UniProt P37288) in what follows.

compound	AC50
CC(C)NCC(O)COc1ccc(COCCOC(C)C)cc1 (centres undefined)	> 10 µM
Cc1nc2ccc(CN(C)c3ccc(C(=O)N[C@@H](CCC(=O)O)C(=O)O)s3)cc2c(=O)[nH]1	> 30 µM
C[C@H]1O[C@H](O[C@H]2[C@H](O)[C@@H](O)[C@@H](O[C@H]3[C@H](O)[C@@H](O)C(O)O[C@@H]3CO)O[C@@H]2CO)[C@H](O)[C@@H](O)[C@@H]1N[C@H]1C=C(CO)[C@@H](O)[C@H](O)[C@H]1O (some centres undefined)	> 30 µM

Read the next record carefully.
Report AC50 for `Cc1ccc(-c2nc3ccc(C)cn3c2CC(=O)N(C)C)cc1` please.
> 30 µM
